- target-of-assay: Dopamine D2 (Homo sapiens, UniProt P14416)
- Sequence (P14416 whole entry): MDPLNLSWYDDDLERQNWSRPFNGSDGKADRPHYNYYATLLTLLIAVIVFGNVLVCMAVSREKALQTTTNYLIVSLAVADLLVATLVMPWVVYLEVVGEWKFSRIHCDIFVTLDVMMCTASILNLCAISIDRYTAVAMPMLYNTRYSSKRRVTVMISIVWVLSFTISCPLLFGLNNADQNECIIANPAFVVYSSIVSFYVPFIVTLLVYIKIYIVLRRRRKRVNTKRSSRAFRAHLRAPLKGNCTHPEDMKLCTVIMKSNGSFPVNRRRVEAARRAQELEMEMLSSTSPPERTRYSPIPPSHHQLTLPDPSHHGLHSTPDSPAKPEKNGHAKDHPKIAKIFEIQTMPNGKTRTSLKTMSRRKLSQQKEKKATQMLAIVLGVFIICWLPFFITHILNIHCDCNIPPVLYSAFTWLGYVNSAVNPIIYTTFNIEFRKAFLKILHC
- test-name: Off‐target panel: Dopamine D2
experimental-endpoint: EC50

[Q] Find the measured EC50 of `CCC[C@@H](NC(=O)c1cccc2c1CC(=O)N2)[C@@H](O)c1cccc(F)c1C` and report it.
[A] > 100 µM

----------
- target-of-assay: Dopamine D2 (Homo sapiens, UniProt P14416)
- test-name: Off‐target panel: Dopamine D2
experimental-endpoint: IC50

[Q] Supply recorded IC50 for CCC[C@@H](NC(=O)c1cccc2c1CC(=O)N2)[C@@H](O)c1cccc(F)c1C [GSK716] here.
[A] > 100 µM

----------
- target-of-assay: UniProt:P28222
- Sequence (P28222 whole entry): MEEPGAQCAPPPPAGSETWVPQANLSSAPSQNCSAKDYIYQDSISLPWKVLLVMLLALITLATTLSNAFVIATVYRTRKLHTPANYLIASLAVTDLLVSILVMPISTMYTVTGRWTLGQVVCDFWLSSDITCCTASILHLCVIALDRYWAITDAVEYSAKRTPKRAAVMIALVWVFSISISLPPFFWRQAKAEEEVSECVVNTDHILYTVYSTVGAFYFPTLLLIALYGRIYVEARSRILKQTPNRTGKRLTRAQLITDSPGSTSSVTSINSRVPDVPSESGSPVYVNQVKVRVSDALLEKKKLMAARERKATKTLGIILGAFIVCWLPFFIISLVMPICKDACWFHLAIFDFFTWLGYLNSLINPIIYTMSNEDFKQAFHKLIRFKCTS
- test-name: Off‐target panel: Serotonin 5HT1B
- Type: cell-based
- Experimental: GSK716 selectivity and PK properties were profiled in order to investigate the suitability of GSK716 for progression into in vivo studies and the potential for taking it forward as a clinical candidate for testing in humans. Since GSK716 results in loss of inhibitory activity of α1‐antitrypsin, the effect of the compound was assessed on other closely related serpins. […]
experimental-endpoint: EC50

[Q] Give EC50 only, for `CCC[C@@H](NC(=O)c1cccc2c1CC(=O)N2)[C@@H](O)c1cccc(F)c1C` , using UniProt:P28222 data.
[A] > 100 µM
